// provenance: paper PMC3072374

Biological target: western clawed frog TRPV3 (Xenopus tropicalis, UniProt A0A7D9NMJ5)
Construct: full-length native channel, 773 residues, cDNA cloned from toe RNA into pGEMHE; cRNA injected into Xenopus laevis oocytes; homotetramer (known biology)
Sequence (A0A7D9NMJ5 1-773): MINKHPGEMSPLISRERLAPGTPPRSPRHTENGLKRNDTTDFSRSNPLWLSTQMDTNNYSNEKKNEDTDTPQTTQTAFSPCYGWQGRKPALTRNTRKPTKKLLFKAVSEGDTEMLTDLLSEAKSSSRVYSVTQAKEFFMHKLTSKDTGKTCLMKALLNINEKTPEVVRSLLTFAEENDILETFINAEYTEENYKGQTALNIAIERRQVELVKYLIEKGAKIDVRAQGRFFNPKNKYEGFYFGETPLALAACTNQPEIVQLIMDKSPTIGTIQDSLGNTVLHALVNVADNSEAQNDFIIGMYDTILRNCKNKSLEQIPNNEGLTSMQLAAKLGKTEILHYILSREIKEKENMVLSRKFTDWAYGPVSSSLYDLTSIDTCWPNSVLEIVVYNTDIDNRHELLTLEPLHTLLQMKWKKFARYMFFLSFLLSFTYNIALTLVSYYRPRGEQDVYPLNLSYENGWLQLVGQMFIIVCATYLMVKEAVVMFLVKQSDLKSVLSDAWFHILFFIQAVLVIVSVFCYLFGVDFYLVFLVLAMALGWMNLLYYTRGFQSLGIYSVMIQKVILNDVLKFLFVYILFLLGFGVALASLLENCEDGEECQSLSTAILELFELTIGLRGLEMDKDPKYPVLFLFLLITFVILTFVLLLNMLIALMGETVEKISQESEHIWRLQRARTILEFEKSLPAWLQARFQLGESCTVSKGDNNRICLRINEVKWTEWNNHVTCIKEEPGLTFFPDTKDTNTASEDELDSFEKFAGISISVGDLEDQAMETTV
Assay: two-electrode voltage clamp in Xenopus laevis oocytes, dose-response
TEST READOUT: EC50

In [3]: df
Out[3]:
                          compound  result
0  NCCOB(c1ccccc1)c1ccccc1 [2-APB]  540 µM
